Tested on: ACHN renal
Test: NCI tumour cell line growth inhibition, 48 h
Class Fulfilled: TGI at least 20 µM. Class Not fulfilled: TGI below 20 µM.

| compound | experimental target | group |
| --- | --- | --- |
| COc1ccc(NC(=O)c2ccc(C(F)(F)F)nc2Nc2ccc(Cl)cc2C)cc1Cl | ACHN renal | Not fulfilled |
| CCCCCCCC(=O)Nc1nc2[nH]c(CN3CCN(Cc4cccc(I)c4)CC3)c(CN3CCN(Cc4cccc(I)c4)CC3)c2c(=O)[nH]1 | ACHN renal | Not fulfilled |
| Cn1cnc(SC2=CC(=O)C=C3S[C@H]4C[C@@]23c2c(c(O)c3c5c2=NCCC=5C=N3)N4)c1CC(N)C(=O)O (stereo not given in full) | ACHN renal | Fulfilled |
| C=CCC1(CN(C)C)CC/C(=C\c2cc(OC)c(OC)c(OC)c2)C1=O (stereo not given) | ACHN renal | Fulfilled |
| Cn1cc(-c2ncnc3ccc(-c4cnc(Cl)c(NS(C)(=O)=O)c4)cc23)c2ccccc21 | ACHN renal | Fulfilled |
| Nc1ccc(C(=O)CC2(O)C(=O)Nc3ccccc32)cc1 (stereo not given) | ACHN renal | Fulfilled |
| O=C(/C=C/c1ccc(-c2ccccc2)cc1)c1ccccc1 | ACHN renal | Fulfilled |
| Clc1ccc(-c2nnc(-c3nn(-c4ccccc4)c4nc5ccccc5nc34)o2)cc1 | ACHN renal | Fulfilled |

-- ask Decide: is the reported value of TGI for `COc1ccc(-c2oc3ncnc(N)c3c2-c2ccc(NC(=O)Nc3cc(C(F)(F)F)ccc3F)cc2)cc1` equal to or greater than 20 µM?
-- reply Not fulfilled
